target: human melanin concentrating hormone type 2 receptor (MCH-2R) (human, UniProt Q969V1 1-340); assay: cell-based or functional assay
Sequence (Q969V1 whole entry, form in doubt): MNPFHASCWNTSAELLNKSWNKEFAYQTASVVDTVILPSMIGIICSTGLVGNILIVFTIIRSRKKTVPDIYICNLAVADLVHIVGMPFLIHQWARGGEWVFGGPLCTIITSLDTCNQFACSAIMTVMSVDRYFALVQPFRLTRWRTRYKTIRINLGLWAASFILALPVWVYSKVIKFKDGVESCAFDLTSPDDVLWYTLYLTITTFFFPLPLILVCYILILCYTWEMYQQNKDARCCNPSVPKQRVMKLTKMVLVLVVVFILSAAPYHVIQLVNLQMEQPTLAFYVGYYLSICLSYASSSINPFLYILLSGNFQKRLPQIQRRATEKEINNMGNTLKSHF
Bridges are numbered along the chain shown (N, C = ends). [ ]: non-standard residue; d: D form.
Catalogue of Activation % at 10 µM (aequorin functional assay) values
reportedEndpoint: Activation % at 10 µM (aequorin functional assay) (%)

# binder, observedMeasurement
rows = [
    ("Ac-RCMLARVYRPC-NH2 (disulfide 2-11; SMILES CSCC[C@@H]1NC(=O)[C@@H](NC(=O)[C@H](CCCNC(=N)N)NC(C)=O)CSSC[C@@H](C(N)=O)NC(=O)[C@@H]2CCCN2C(=O)[C@H](CCCNC(=N)N)NC(=O)[C@H](Cc2ccc(O)cc2)NC(=O)[C@H](C(C)C)NC(=O)[C@H](CCCNC(=N)N)NC(=O)[C@H](C)NC(=O)[C@H](CC(C)C)NC1=O, also called Ala^10) [SEQ. ID. NO. 7]", 97),
    ("RCALXXVYRPC (D-Ala^10, Harg^11 (homoarginine), also called Ala^8, D-Ala^10, Harg^11) [SEQ. ID. NO. 38]", 49),
    ("RCMLGXVYRPC (N-Me-Arg^11) [SEQ. ID. NO. 22]", 86),
    ("RCMLGXVYRPC (Arg(NO2)^11 (nitroarginine), also called Arg(NO2)^11) [SEQ. ID. NO. 25]", 39),
    ("Ac-RCML[dS]RVYRPC-NH2 (disulfide 2-11 (inferred), also called D-Ser^10) [SEQ. ID. NO. 19]", 113),
]
